target: CMPK2; assay: pooled miR-30 sensor sort-seq; sequence = guide strand; conditions: shRNA; further: reference of the scale not given here
Kind request: treat -1 as inclusive, so sensor-assay potency score (higher = more potent) at -1 or higher is condition met, anything lower is condition not met.

{"chain.sequence": "TTTTGGGCACTGGTCGACCAGG", "classification": "condition not met"}
{"chain.sequence": "TTTCAAACAACATCTAATCTAG", "classification": "condition met"}
{"chain.sequence": "TAATACCGTCTGCAGGACCTTT", "classification": "condition not met"}
{"chain.sequence": "TTTGACGAAACACACTGTTGGC", "classification": "condition met"}
{"chain.sequence": "TCAAGTTCTGCTTCTTCCCTGG", "classification": "condition met"}
{"chain.sequence": "TTCTTCCCTGGTCTTCTCCATG", "classification": "condition not met"}
{"chain.sequence": "TCCTTCGATGGCAACAACCTGG", "classification": "condition not met"}
{"chain.sequence": "TACCTGTCTACAATCACAGGAG", "classification": "condition met"}
{"chain.sequence": "TTGACGAAACACACTGTTGGCC", "classification": "condition met"}
{"chain.sequence": "TTCATCATCAAAGATCTTCCTC", "classification": "condition met"}
